# System: Staphylococcus aureus
# ASSAY SUMMARY: Antimicrobial activity against Staphylococcus aureus INCQS 00015 ATCC 25923 assessed as zone of inhibition at 5 mg/ml after 18 to 24 hrs by disc diffusion method
# Format: functional
# ASSAY CONTEXT: read-out: IZ
Given measured zone of inhibition at 5000 µg/mL, output TRUE if it is greater than or equal to 10 mm and FALSE if not.

line_notation=COC(=O)c1c(C)nc(C)c2c1C(=O)C(Br)=C(NC[C@H]1O[C@@H]3OC(C)(C)O[C@@H]3[C@H]1O)C2=O group=FALSE
line_notation=CC1(C)O[C@H]2O[C@H](CNC3=C(Br)C(=O)c4ccccc4C3=O)[C@H](O)[C@H]2O1 group=FALSE
line_notation=NC1=CC(=O)c2ccccc2C1=O group=TRUE
line_notation=CC1(C)O[C@H]2[C@@H](O1)[C@@H](CNC1=C(Br)C(=O)c3ccccc3C1=O)O[C@@H]1OC(C)(C)O[C@@H]12 group=FALSE
line_notation=COC(=O)c1c(C)nc(C)c2c1C(=O)C(Cl)=C(NC[C@H]1O[C@@H](OC)[C@@H]3OC(C)(C)O[C@@H]31)C2=O group=FALSE
line_notation=CC1(C)O[C@H]2O[C@H](CNC3=C(Cl)C(=O)c4ccccc4C3=O)[C@H](O)[C@H]2O1 group=TRUE
line_notation=COC(=O)c1c(C)nc(C)c2c1C(=O)C(Br)=C(N)C2=O group=TRUE
